- Tested on: VZV strain Ellen
- PROCEDURE SUMMARY: VZV Antiviral (ELISA) Assay in human foreskin fibroblast cells
- Type: cell-based, varicella-zoster virus
- CONDITION SET: Human alphaherpesvirus 3, Fibroblast, read-out: IC50 (ug/ml) VZV
REPORTED ENDPOINT: log10 IC50 (log10 of the value in µg/mL)

INSERT INTO assay_data (molecule, system_name, value_reported) VALUES
  ('C[C@H](NC(=S)Nc1ccc(NC(=O)c2ccccc2F)cc1)c1ccc(Cl)cc1', 'VZV strain Ellen', -1.52),
  ('CC(NC(=S)Nc1ccc(NC(=O)c2nccc3ccccc23)cc1)c1ccc(C#N)cc1 (stereo not shown)', 'VZV strain Ellen', -0.89),
  ('Nc1ccc(C(F)(F)F)cc1NC(=S)Nc1ccc(NC(=O)c2ccccc2F)cc1', 'VZV strain Ellen', 0.97),
  ('CC(NC(=S)Nc1ccc(NC(=O)c2ccccc2F)cc1)c1ccccc1F (stereo not shown)', 'VZV strain Ellen', 0.48),
  ('CC(NC(=S)Nc1ccc(NC(=O)c2cc3ccccc3o2)cc1)c1ccc(C#N)cc1 (stereo not shown)', 'VZV strain Ellen', -0.22),
  ('C[C@H](NC(=S)Nc1ccc(NC(=O)c2ccccc2F)cc1)c1ccc(Br)cc1', 'VZV strain Ellen', -1.22),
  ('COc1ccc(NC(=S)Nc2ccc(NC(=O)c3ccccc3)cc2)cc1Cl', 'VZV strain Ellen', 1.08),
  ('O=C(Nc1ccc(NC(=S)NCCc2ccccc2)cc1)c1ccccc1F', 'VZV strain Ellen', 0.90),
  ('COc1cc(OC)c(NC(=S)Nc2ccc(NC(=O)c3ccccc3F)cc2)cc1Br', 'VZV strain Ellen', 0.54);

Values compiled from patent US6462055B2.
